test system: SNB-75 CNS; test: NCI tumour cell line growth inhibition, 48 h; in the data active means GI50 below about 0.43 µM; inactive means the rest
Classes used: active, inactive

# chemical smiles, tgt, group
measured = [
    ("O=C(c1cccs1)c1c(C(F)(F)F)n([O-])c2ccccc2[n+]1=O", "SNB-75 CNS", "inactive"),
    ("COc1ccc(-c2cc(-c3cc(Cl)ccc3Cl)nc3[nH]c(-c4cc(F)c(Cl)cc4Cl)cc(=O)c23)cc1", "SNB-75 CNS", "inactive"),
    ("CC(C)(C)OC(=O)n1cc(CNC(=S)Nc2ccccc2)c2ccccc21", "SNB-75 CNS", "inactive"),
    ("CNC(=O)c1ccccc1CC1(O)c2ccccc2Oc2ccccc21", "SNB-75 CNS", "inactive"),
    ("CC1(C)N=C(N)N=C(N)N1c1ccc(CCCCc2ccc(S(=O)(=O)F)cc2)cc1", "SNB-75 CNS", "inactive"),
    ("COc1cc(C(=O)NC2c3ccccc3-c3ccccc32)c(N)cc1OCc1ccccc1", "SNB-75 CNS", "inactive"),
    ("COc1cccc(/C=C/C(=O)c2cc3c(N)c(C(=O)Nc4ccccc4C)sc3nc2C)c1", "SNB-75 CNS", "inactive"),
    ("Nc1n[nH]c2ccc([C@@H]3Nc4ccc5[nH]ncc5c4[C@H]4[C@H]5CCC(C5)[C@H]43)cc12", "SNB-75 CNS", "active"),
    ("O=C(c1ccc2ccccc2c1)c1c(C(F)(F)F)n([O-])c2cc(Cl)c(Cl)cc2[n+]1=O", "SNB-75 CNS", "inactive"),
    ("O=C(CCN1CCN(c2cnc3ccccc3n2)CC1)c1csc2ccccc12", "SNB-75 CNS", "inactive"),
    ("CCN1CCN(c2nc(NCCCNc3ccnc4cc(Cl)ccc34)c3ccccc3n2)CC1", "SNB-75 CNS", "inactive"),
    ("C=CC(=O)Nc1cccc(-c2nc(SC)nc(Nc3ccccc3OC)c2C#N)c1", "SNB-75 CNS", "inactive"),
    ("Cc1nn(-c2ccc(F)cc2)c2ncnc(Nc3ccc(NC(=O)Nc4ccc(Cl)c(C(F)(F)F)c4)cc3)c12", "SNB-75 CNS", "inactive"),
    ("Cc1cc([C@@H](C)Nc2ccccc2C(=O)O)c2nc(N3CCOCC3)cc(=O)n2c1", "SNB-75 CNS", "inactive"),
    ("C=CC(=O)N[C@H]1C=C(C)c2c(-c3cnc4ccccc4c3)c3c(N)ncnc3n2C1", "SNB-75 CNS", "inactive"),
    ("Brc1cccc(-c2cc(-c3ccc4c(c3)OCCO4)[nH]n2)c1", "SNB-75 CNS", "inactive"),
    ("COc1ccc(/C=C/C=C(/C#N)C(N)=S)cc1", "SNB-75 CNS", "inactive"),
]

====

Measured TGI accompanies every entry in the list below.
test system: K-562 leukemia; experiment: NCI tumour cell line growth inhibition, 48 h

# molecule, tgt, TGI
data = [
    ("CC(=O)OCC1OC(N2C(=O)/C(=C\\c3ccc(Cl)cc3)C(N)=Nc3ccccc32)C(OC(C)=O)C(OC(C)=O)C1OC(C)=O (stereo unspecified)", "K-562 leukemia", "33.1 µM"),
    ("CC(=O)Nc1cccc(-n2c(=O)n(C3CC3)c(=O)c3c(Nc4ccc(I)cc4F)n(C)c(=O)c(C)c32)c1", "K-562 leukemia", "> 100 µM"),
    ("O=C(/C=C/c1ccc(Cl)cc1)c1ccc(Cl)cc1Cl", "K-562 leukemia", "14.2 µM"),
    ("Cc1cc2c(cc1C)[n+](=O)c(C(=O)C/C(=N/NC(=O)c1ccccc1O)C(=O)Nc1ccccc1C(C)C)c(C)n2[O-]", "K-562 leukemia", "> 100 µM"),
    ("Fc1cccc(COc2ccc(Nc3ncncc3C#Cc3ccccc3)cc2Cl)c1", "K-562 leukemia", "> 25 µM"),
    ("C[C@@H]1CC[C@H]2C(COCC3=C(C(F)(F)F)O[C@@H]4O[C@@]5(C)CC[C@H]6[C@H](C)CC[C@@H]3[C@@]46OO5)=C(C(F)(F)F)O[C@@H]3O[C@@]4(C)CC[C@@H]1[C@]32OO4", "K-562 leukemia", "> 100 µM"),
    ("Cc1c(S(=O)(=O)c2ccccc2)c(N)n(Cc2ccccc2)c1C", "K-562 leukemia", "> 100 µM"),
    ("OCC1CCCC(n2cnc3c(=S)nc[nH]c32)O1 (stereo unspecified)", "K-562 leukemia", "> 100 µM"),
    ("CN(C)CC(=O)N1CCC(c2ccc(NC(=O)c3ncc(C#N)[nH]3)c(C3=CCCCC3)c2)CC1", "K-562 leukemia", "12 µM"),
    ("CCn1cc(C(c2ccc(Cl)cc2)n2ccnc2)c2cc(Br)ccc21 (stereo unspecified)", "K-562 leukemia", "33.5 µM"),
    ("COc1cccc(/C=C/C(=O)c2cc3c(N)c(C(=O)Nc4ccccc4C)sc3nc2C)c1", "K-562 leukemia", "> 50 µM"),
    ("CSC1=Nc2ccccc2N(C)c2c1c(-c1ccccc1)nn2C", "K-562 leukemia", "55.9 µM"),
    ("O=C(Cc1nc2ccc(C(=O)c3ccccc3)cc2[nH]c1=O)C(=O)Nc1ccc(Br)cc1", "K-562 leukemia", "> 100 µM"),
    ("Cc1cc2c(c(C(=O)NCCC(=O)O)c1)Oc1c(cc(C)cc1C(=O)NCCC(=O)O)S2", "K-562 leukemia", "> 100 µM"),
    ("CCCCc1c(O)nc(Nc2nc3ccccc3[nH]2)[nH]c1=O", "K-562 leukemia", "> 100 µM"),
    ("O=C(/C(=C(/Br)I)c1ccccc1)c1ccccc1", "K-562 leukemia", "39.3 µM"),
    ("C#Cc1cnc(=O)n(C2CC(O)C(CO)O2)c1 (stereo unspecified)", "K-562 leukemia", "> 100 µM"),
    ("Oc1ccccc1C(c1cc2c(cc1O)OCO2)N1CCOCC1 (stereo unspecified)", "K-562 leukemia", "23.5 µM"),
    ("Cc1cc2nc3c4cc(Cl)ccc4n(CCN(C)C)c3nc2cc1C", "K-562 leukemia", "4.03 µM"),
    ("Nc1nc2ncc(SCc3ccc(C(=O)NC(CCC(=O)O)C(=O)O)cc3)cc2c(=O)[nH]1 (stereo unspecified)", "K-562 leukemia", "> 100 µM"),
    ("C=CCSC[C@H](NC(=O)COc1ccccc1)C(=O)NC(C(=O)OCc1ccc([N+](=O)[O-])cc1)=C(C)C", "K-562 leukemia", "> 100 µM"),
]

# credit: PubChem BioAssay (NCI)
